# STUDY TARGET: T1, Anti-CD28 Fab (SEQ ID NOs: 696, 697)
# T1 construct: Biotinylated and captured on neutravidin coated plates in the phage ELISA
# T1 sequence (VH, as listed by the source, chain 1 of 2): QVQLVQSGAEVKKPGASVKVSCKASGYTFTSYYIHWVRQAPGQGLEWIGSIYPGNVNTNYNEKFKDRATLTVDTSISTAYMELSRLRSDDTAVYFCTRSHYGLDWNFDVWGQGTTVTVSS
# T1 sequence (VL, as listed by the source, chain 2 of 2): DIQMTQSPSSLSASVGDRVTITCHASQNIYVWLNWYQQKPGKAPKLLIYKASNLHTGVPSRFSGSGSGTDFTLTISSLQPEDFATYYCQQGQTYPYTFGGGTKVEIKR
# PROTOCOL SUMMARY: clonal phage ELISA; biotinylated anti-CD28 Fab on neutravidin plate, bound phage detected with anti-M13 HRP
VALUE KIND: Phage binding ELISA, Anti-CD28 Fab signal
API doc: respond with a numeric literal and nothing else, no unit.

Example entries begin here.
YCDGHAKVYIWKCL [Phage-1194]
1.06
YCEGHLWEYLAKCL [Phage-1183]
1.1
YCEGHAQEYMAKCL [Phage-1193]
1.06

Prompt: // returns reported Phage binding ELISA, Anti-CD28 Fab signal for input YCEGHSAEYIGKCL [Phage-1187]
Response: 1.08

The origin of these recorded values is patent US20260242478A1.
